Reference for the values: paper PMC7497679

Molecular target: XIAP BIR3 domain (Homo sapiens)
Construct: fluorescent probe 4 and the XIAP BIR3 domain (Sino Biological, Beijing, China) were used for all measurements; purchased Sino Biological, Beijing, China
Sequence (P98170 252-356 limits assumed): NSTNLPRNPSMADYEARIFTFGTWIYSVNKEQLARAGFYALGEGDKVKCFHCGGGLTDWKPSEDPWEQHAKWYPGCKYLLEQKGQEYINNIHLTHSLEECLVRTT
Assay: Fluorescence polarization inhibition (competition) assay
Assay type: binding
Details: 0.5 h; antagonist 50 µM; inhibition of protein-probe interaction
# inhibition at 50 µM annotations
Your answer is read as %, so omit the unit and give the number.

> print(dat)
                                   compound                target.under.test  unit.annotation  experimental.result
1  CN[C@@H](C)C(=O)N[C@H](C(=O)N1CCC[C@H]1C(=O)NC(CC(C)C)P(=O)(Oc1ccccc1)Oc1ccccc1)C(C)C (stereo partly drawn)  XIAP BIR3 domain (Homo sapiens)                %                 67.4
2  CN[C@@H](C)C(=O)N[C@H](C(=O)N1CCC[C@H]1C(=O)NCP(=O)(c1ccccc1)c1ccccc1)C(C)C  XIAP BIR3 domain (Homo sapiens)                %                 63.6
3  CN[C@@H](C)C(=O)N[C@H](C(=O)N1CCC[C@H]1C(=O)NC(C)P(=O)(Oc1ccc(C(C)C)cc1)Oc1ccc(C(C)C)cc1)C1CCCCC1 (stereo partly drawn)  XIAP BIR3 domain (Homo sapiens)                %                 85.8

Attention now shifts to the item below.
Provide inhibition at 50 µM, tested on XIAP BIR3 domain (Homo sapiens), for CN[C@@H](C)C(=O)N[C@H](C(=O)N1CCC[C@H]1C(=O)NC(C(C)C)P(=O)(Oc1ccccc1)Oc1ccccc1)C(C)C (stereo partly drawn) .
58.5
